system tested: p53-MDM2 interaction (GST-MDM2 protein aa 23-117 / biotinylated p53 wt peptide) (Homo sapiens (Human), UniProt Q00987)
method summary: MDM2-p53 Inhibition AlphaScreen
experimental setup: 20 nM GST-MDM2 (aa 23-117), 20 nM biotinylated p53 wt peptide
value type: pIC50
Expect pIC50 as a plain number equal to -log10 of the molar concentration.

Recorded results for 5 compounds are shown here.
> print(dat)
                                   compound  value.reported
1  CCOc1cccc(CN2[C@@H]3CN(c4ccc(C(=O)O)cc4)C(=O)[C@@H]3[C@@H](c3cccc(Cl)c3F)[C@@]23C(=O)Nc2cc(Cl)ccc23)c1            5.94
2  O=C(O)c1ccc(CN2CC[C@H]3[C@@H](C2=O)[C@H](c2cccc(Cl)c2F)[C@]2(C(=O)Nc4cc(Cl)ccc42)N3CC2CC2)cc1            6.68
3  O=C(O)c1ccc(N2CC[C@H]3[C@@H](C2=O)[C@H](c2cccc(Cl)c2F)[C@]2(C(=O)Nc4cc(Cl)ccc42)N3CC2CC2)cc1 [Compound I-171]            8.40
4  CC(C)(C)CN1[C@H]2CCN(c3ccc(C(=O)O)cc3)C(=O)[C@H]2[C@H](c2cccc(Cl)c2F)[C@]12C(=O)Nc1cc(Cl)ccc12            7.32
5  CCOc1cccc(CN2[C@H]3CCN(c4ccc(C(=O)O)cc4)C(=O)[C@H]3[C@H](c3cccc(Cl)c3F)[C@]23C(=O)Nc2cc(Cl)ccc23)c1 [Compound I-186]            8.70

Lookup: For the compound CCOc1cccc(CN2[C@H]3CCN(Cc4ccc(C(=O)O)cc4)C(=O)[C@H]3[C@H](c3cccc(Cl)c3F)[C@]23C(=O)Nc2cc(Cl)ccc23)c1 , give its measured pIC50 value.
Found: 7.68

Lookup: For the compound CN(C)C(=O)c1ccc(N2C[C@H]3[C@@H](C2=O)[C@H](c2cccc(Cl)c2F)[C@]2(C(=O)Nc4cc(Cl)ccc42)N3CC2CC2)cc1 , give its measured pIC50 value.
Found: 8.00

Lookup: For the compound O=C(O)c1ccc(N2C[C@H]3[C@@H](C2=O)[C@H](c2cccc(Cl)c2F)[C@]2(C(=O)Nc4cc(Cl)ccc42)N3CC2CC(F)(F)C2)cc1 , give its measured pIC50 value.
Found: 8.30

----------
system tested: p53-MDM2 interaction (GST-MDM2 protein aa 23-117 / biotinylated p53 wt peptide) (Homo sapiens (Human), UniProt Q00987)
method summary: MDM2-p53 Inhibition AlphaScreen
experimental setup: 20 nM GST-MDM2 (aa 23-117), 20 nM biotinylated p53 wt peptide
pIC50: −log10 of the molar value.
Use 7 as the dividing line for pIC50, with the line itself on the Condition met side and lower values as Condition not met.

molecule	label value
CC1CC1CN1[C@H]2CCNC(=O)[C@H]2[C@H](c2cccc(Cl)c2F)[C@]12C(=O)Nc1cc(Cl)ccc12 (some centres unmarked) [Compound I-13]	Condition not met

Lookup: Does pIC50 meet or surpass 7 for CCOc1cccc(CN2[C@@H]3CCN(c4ccc(C(=O)OC)cc4)C(=O)[C@@H]3[C@@H](c3cccc(Cl)c3F)[C@@]23C(=O)Nc2cc(Cl)ccc23)c1 [Compound I-112] ?
Found: Condition not met

Lookup: Does pIC50 meet or surpass 7 for O=C(O)c1ccc(-c2cc(Cl)c(F)c([C@H]3[C@@H]4C(=O)NCC[C@@H]4N(CC4CC4)[C@@]34C(=O)Nc3cc(Cl)ccc34)c2)cc1 [Compound I-290] ?
Found: Condition met

Lookup: Does pIC50 meet or surpass 7 for CC(C)(C)CN1[C@H]2CN(c3ccc(C(=O)O)cc3)C(=O)[C@H]2[C@H](c2cccc(Cl)c2F)[C@]12C(=O)Nc1cc(Cl)ccc12 [Compound I-228] ?
Found: Condition met

----------
system tested: p53-MDM2 interaction (GST-MDM2 protein aa 23-117 / biotinylated p53 wt peptide) (Homo sapiens (Human), UniProt Q00987)
method summary: MDM2-p53 Inhibition AlphaScreen
Type: biochemical
experimental setup: 20 nM GST-MDM2 (aa 23-117), 20 nM biotinylated p53 wt peptide
value type: pIC50
Expect pIC50 as a plain number equal to -log10 of the molar concentration.

Recorded results for 2 compounds are shown here.
> print(dat)
                                   compound  value.type  value.reported
1  O=C1NCC[C@H]2[C@@H]1[C@H](c1cccc(Cl)c1F)[C@]1(C(=O)Nc3cc(Cl)ccc31)N2CC1CC1 [Compound I-1]       pIC50            7.07
2  COc1cc(C(=O)O)ccc1N1CC[C@H]2[C@@H](C1=O)[C@H](c1cccc(Cl)c1)[C@]1(C(=O)Nc3cc(Cl)ccc31)N2CC1CC1 [Compound I-181]       pIC50            7.04

Lookup: For the compound CC(C)(C)CN1[C@H]2CCN(c3ccc(S(C)(=O)=O)cc3)C(=O)[C@H]2[C@H](c2cccc(Cl)c2F)[C@]12C(=O)Nc1cc(Cl)ccc12 [Compound I-74] , give its measured pIC50 value.
Found: 6.47

Lookup: For the compound O=C(O)c1ccc(N2C[C@@H]3[C@H](C2=O)[C@@H](c2cccc(Cl)c2F)[C@@]2(C(=O)Nc4cc(Cl)ccc42)N3CC2CCCC2)cc1 [Compound I-236] , give its measured pIC50 value.
Found: 6.31

Lookup: For the compound O=C1NC[C@H]2[C@@H]1[C@H](c1cccc(Cl)c1F)[C@]1(C(=O)Nc3cc(Cl)ccc31)N2CC1CC1 [Compound I-40] , give its measured pIC50 value.
Found: 7.48

Lookup: For the compound O=C1NC[C@H]2[C@@H]1[C@H](c1cccc(Cl)c1F)[C@]1(C(=O)Nc3cc(Cl)ccc31)N2CC1CC1 [Compound I-39] , give its measured pIC50 value.
Found: 7.49

Lookup: For the compound CCOc1cccc(CN2[C@H]3CCNC(=O)[C@H]3[C@H](c3cccc(Cl)c3F)[C@]23C(=O)Nc2cc(Cl)ccc23)c1 [Compound I-5] , give its measured pIC50 value.
Found: 7.77

Lookup: For the compound O=C(CO)c1ccc(N2C[C@H]3[C@@H](C2=O)[C@H](c2cccc(Cl)c2F)[C@]2(C(=O)Nc4cc(Cl)ccc42)N3CC2CC2)cc1 [Compound I-262] , give its measured pIC50 value.
Found: 7.68

Lookup: For the compound CNC(=O)c1ccc(N2CC[C@H]3[C@@H](C2=O)[C@H](c2cccc(Cl)c2F)[C@]2(C(=O)Nc4cc(Cl)ccc42)N3CC2CC2)cc1 [Compound I-270] , give its measured pIC50 value.
Found: 7.57

Lookup: For the compound O=C(O)c1ccc(N2C[C@H]3[C@@H](C2=O)[C@H](c2cccc(Br)c2F)[C@]2(C(=O)Nc4cc(Cl)ccc42)N3CC2CC2)cc1F [Compound I-254] , give its measured pIC50 value.
Found: 8.05
